- target: HLA-B*51:01
- test-summary: IEDB peptide-MHC binding, purified MHC/direct/fluorescence; filed as Kd, often an IC50 or EC50 that approximates it; bounds were set here for any values at or beyond the usual limits of such assays
- measurement-setup: source organism: Ravn virus - Ravn, Kenya, 1987
pKd: −log10 of the molar value.
quantity-measured: pKd

INSERT INTO results (sequence, assay_value) VALUES
  ('NLFDWMHFL', '≤ 4.70');

---

- target: HLA-B*58:01
- test-summary: IEDB peptide-MHC binding, purified MHC/direct/fluorescence; filed as Kd, often an IC50 or EC50 that approximates it; bounds were set here for any values at or beyond the usual limits of such assays
- measurement-setup: source organism: Influenza A virus (A/camel/Mongolia/1982(H1N1))
pKd: −log10 of the molar value.
quantity-measured: pKd

INSERT INTO assay_data (sequence, quantity_measured, assay_value) VALUES
  ('HIPEVCLKW', 'pKd', 6.92);

---

- target: HLA-B*08:01
- test-summary: IEDB peptide-MHC binding, purified MHC/direct/fluorescence; filed as Kd, often an IC50 or EC50 that approximates it; bounds were set here for any values at or beyond the usual limits of such assays
- measurement-setup: source organism: Influenza A virus (A/tiger/Thailand/CU-T6/04(H5N1))
pKd: −log10 of the molar value.
quantity-measured: pKd

INSERT INTO measurements (sequence, quantity_measured, assay_value) VALUES
  ('TYQWIIRNW', 'pKd', '≤ 4.70');

---

- target: HLA-A*23:01
- test-summary: IEDB peptide-MHC binding, purified MHC/competitive/fluorescence; filed as Kd, often an IC50 or EC50 that approximates it; bounds were set here for any values at or beyond the usual limits of such assays
- measurement-setup: source organism: Vibrio vulnificus YJ016
quantity-measured: Kd

INSERT INTO results (sequence, assay_value) VALUES
  ('LYQKNIEHF', '≤ 0.1 nM');

---

- target: HLA-A*68:02
- test-summary: IEDB peptide-MHC binding, purified MHC/competitive/radioactivity; filed as Kd, often an IC50 or EC50 that approximates it; bounds were set here for any values at or beyond the usual limits of such assays
- measurement-setup: source organism: Dengue virus 4 Philippines/H241/1956
quantity-measured: Kd

INSERT INTO results (sequence, assay_value) VALUES
  ('MVMTTTANWL', '6.51 nM'),
  ('MVRILIGFLV', '401 nM'),
  ('ESPARLASAI', '501 nM'),
  ('YTPEGIIPTL', '264 nM'),
  ('ETNMITLLV', '7.24 nM');

---

- target: HLA-B*38:01
- test-summary: IEDB peptide-MHC binding, purified MHC/direct/fluorescence; filed as Kd, often an IC50 or EC50 that approximates it; bounds were set here for any values at or beyond the usual limits of such assays
- measurement-setup: source organism: Mycobacterium tuberculosis str. Haarlem
pKd: −log10 of the molar value.
quantity-measured: pKd

INSERT INTO measurements (sequence, assay_value) VALUES
  ('RPRRASSPF', '≤ 4.70'),
  ('GPASLPTAL', '≤ 4.70');

---

Reported values of Kd for individual entries
- target: HLA-A*01:01
- test-summary: IEDB peptide-MHC binding, purified MHC/competitive/radioactivity; filed as Kd, often an IC50 or EC50 that approximates it; bounds were set here for any values at or beyond the usual limits of such assays
- measurement-setup: source organism: Mammarenavirus guanaritoense
quantity-measured: Kd (nM)

INSERT INTO results (sequence, u, assay_value) VALUES
  ('CLERWMLVA', 'nM', 153),
  ('ESALNISGY', 'nM', 37.4);
